target entity: Mannose-6-phosphate isomerase (Homo sapiens)
assay info: MPI inhibition at elevated mannose 6-phosphate – biochemical, fluorescence intensity, high mannose 6-phosphate, primary screen (AID 1220)
recorded conditions: recombinant PMI enzyme, coupled fluorescence intensity; at 20 µM; hits give high values
The campaign covered roughly 190,000 compounds. About 1,300 (0.68%) were called active. Many of the other results were omitted from the sample, so actives are more common in it than they were.
Measured inhibition of individual entries
property label: inhibition (%)

{"smiles record": "O=C(NC12CC3CC(CC(C3)C1)C2)c1cc2nc(-c3ccco3)cc(C(F)(F)F)n2n1", "property label": "inhibition", "meas value": 7.3}
{"smiles record": "CCOc1cc(N2CCOCC2)c(OCC)cc1NC(=O)Cc1cccc2ccccc12", "property label": "inhibition", "meas value": -0.6}
{"smiles record": "CCOC(=O)c1c(-c2ccccc2)[nH]c2ccc(O)cc12", "property label": "inhibition", "meas value": 5.9}
{"smiles record": "COc1ccc(NC(=O)COC(=O)[C@@H]2CCCN2S(=O)(=O)c2ccccc2F)c(OC)c1", "property label": "inhibition", "meas value": -1.3}
{"smiles record": "O=C(c1ccc(Cl)cc1)c1c[nH]c(C(=O)NNc2cccc(Cl)n2)c1", "property label": "inhibition", "meas value": 4.5}

* * *

target entity: Mannose-6-phosphate isomerase (Homo sapiens) (UniProt P34949)
Sequence (P34949 whole entry, looked up): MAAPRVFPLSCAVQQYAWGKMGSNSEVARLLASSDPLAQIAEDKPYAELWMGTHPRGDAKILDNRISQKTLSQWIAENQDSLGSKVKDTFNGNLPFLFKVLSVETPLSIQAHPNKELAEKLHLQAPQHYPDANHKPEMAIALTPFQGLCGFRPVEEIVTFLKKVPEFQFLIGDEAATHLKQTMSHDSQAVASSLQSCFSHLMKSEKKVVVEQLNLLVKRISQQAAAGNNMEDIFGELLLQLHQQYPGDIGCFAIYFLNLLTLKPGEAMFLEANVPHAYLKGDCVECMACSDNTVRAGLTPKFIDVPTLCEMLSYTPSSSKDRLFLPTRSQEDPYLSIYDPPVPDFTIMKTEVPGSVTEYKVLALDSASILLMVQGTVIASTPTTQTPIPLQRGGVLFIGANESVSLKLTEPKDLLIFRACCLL
assay info: MPI inhibition at elevated mannose 6-phosphate – biochemical, fluorescence intensity, high mannose 6-phosphate, primary screen (AID 1220)
recorded conditions: recombinant PMI enzyme, coupled fluorescence intensity; at 20 µM; hits give high values
Screen size: about 190,000 compounds; about 1,300 (0.68%) were called active. The entries come from a sample that favours actives as a whole.
Is inhibition at least 10%? Then Criterion met. If not, Criterion not met.

{"compound": "Nc1cc(Cl)nc(N/N=C/c2c(O)ccc3ccccc23)n1", "assigned category": "Criterion met"}
{"compound": "CCc1cc(C(=O)Cc2cnn(-c3ccccc3)c2)c(O)cc1O", "assigned category": "Criterion met"}
{"compound": "COc1ccc(/C=C2\\CC/C(=C\\c3ccc(OC)cc3OC)C2=O)c(OC)c1", "assigned category": "Criterion met"}
{"compound": "COc1cc(=O)n(C)c2cc(N(C)C)ccc12", "assigned category": "Criterion not met"}
{"compound": "CCOC(=O)c1cc2c(ccn2C)n1CC(=O)N(C)C", "assigned category": "Criterion met"}
{"compound": "Cc1ccc(C)c(CN2CCNC2=O)c1", "assigned category": "Criterion not met"}
{"compound": "CCOc1cc(NC(=S)NCC2CCCO2)c(OCC)cc1NC(=O)c1ccccc1C (stereo not drawn)", "assigned category": "Criterion not met"}
{"compound": "CCn1c(=O)c(C(=O)NNS(=O)(=O)c2ccc(Cl)cc2)c(O)c2ccccc21", "assigned category": "Criterion not met"}
{"compound": "Cc1ccc(N=Cc2c(O)ccc3ccccc23)cc1F", "assigned category": "Criterion met"}
{"compound": "Oc1ccc2ccccc2c1C=Nc1ccc(Cl)cn1", "assigned category": "Criterion met"}
{"compound": "CCN(CC)c1ccc(N=Cc2ccc(N(CC)CC)cc2O)cc1", "assigned category": "Criterion met"}
{"compound": "CCOC(=O)c1cc2c(ccn2C)n1CC(=O)N1CCC(C)CC1", "assigned category": "Criterion met"}
{"compound": "Cc1cc(N=Cc2c(O)ccc3ccccc23)no1", "assigned category": "Criterion met"}

* * *

target entity: Mannose-6-phosphate isomerase (Homo sapiens) (UniProt P34949)
assay info: MPI inhibition at elevated mannose 6-phosphate – biochemical, fluorescence intensity, high mannose 6-phosphate, primary screen (AID 1220)
recorded conditions: recombinant PMI enzyme, coupled fluorescence intensity; at 20 µM; hits give high values
Hit rate of the full screen: of about 190,000 compounds, about 1,300 (0.68%) were called active. The sample as a whole holds a higher share of actives than the screen did.

{"compound": "CCOc1cc2[nH]c(=S)n(C3CC3)c(=O)c2cc1OCC", "quantity unit": "%", "inhibition": 2.9}
{"compound": "O=C(NCCn1ccc2ccccc21)C1CCCCC1", "quantity unit": "%", "inhibition": 1.5}
{"compound": "O=C(CNC(=O)/C(=C\\c1ccc(F)cc1)NC(=O)c1ccccc1)OCc1ccccc1", "quantity unit": "%", "inhibition": 0.8}
{"compound": "C=CCOn1c(C)c(C(C)=O)c2c3nonc3ccc21", "quantity unit": "%", "inhibition": 49.2}
{"compound": "O=C(NC(=S)Nc1cccc2ncccc12)c1ccccc1", "quantity unit": "%", "inhibition": 30.3}
{"compound": "COc1ccc(-c2csc(/C(C#N)=C\\c3ccc(OC)c([N+](=O)[O-])c3)n2)cc1", "quantity unit": "%", "inhibition": 3.4}
{"compound": "O=[N+]([O-])c1ccc2oc(C3CCCCC3)nc2c1", "quantity unit": "%", "inhibition": 2.8}
{"compound": "CCN(CC)c1ccc(N=Cc2c(C)[nH]c3ccccc23)cc1", "quantity unit": "%", "inhibition": 69.7}
{"compound": "COc1ccc(CC(=O)N2CCN(c3ccccn3)CC2)cc1", "quantity unit": "%", "inhibition": 8.3}
{"compound": "Cc1ccc(-c2ccc(=O)n(CC(=O)NCCCN3CCCCC3C)n2)cc1 (stereo not drawn)", "quantity unit": "%", "inhibition": 12.3}
{"compound": "COc1ccc(C2=Nc3cccc4cccc(c34)N2)cc1", "quantity unit": "%", "inhibition": 53.1}
{"compound": "CC1CCCCN1CCNC(=O)Cn1nc(-c2ccccc2)ccc1=O (stereo not drawn)", "quantity unit": "%", "inhibition": -4.4}
{"compound": "C=CCc1cccc(/C=N/NC(=O)CNc2cccc3ccccc23)c1O", "quantity unit": "%", "inhibition": 55.2}
{"compound": "NS(=O)(=O)c1ccc(CCNC(=O)COC(=O)/C=C/c2ccc(Cl)cc2)cc1", "quantity unit": "%", "inhibition": 0.2}
{"compound": "Fc1ccc2nc(N3CCOCC3)sc2c1", "quantity unit": "%", "inhibition": -5.9}
{"compound": "O=C(CNc1ccc2ccccc2c1)NNC1=NCCC1", "quantity unit": "%", "inhibition": 52.9}
{"compound": "Cc1cccc(/C=N/NC(=O)C(C)Nc2cccc3ccccc23)n1 (stereo not drawn)", "quantity unit": "%", "inhibition": -72.3}
{"compound": "O=C(CNc1cccc2ccccc12)N/N=C/c1ccc([N+](=O)[O-])cc1", "quantity unit": "%", "inhibition": 18.1}
{"compound": "COCCNC(=S)Nc1cccc2cnccc12", "quantity unit": "%", "inhibition": 48}
{"compound": "Cc1[nH]c2ccccc2c1/C=N/n1cnnc1", "quantity unit": "%", "inhibition": -4.2}
{"compound": "c1coc(C2=Nc3cccc4cccc(c34)N2)c1", "quantity unit": "%", "inhibition": 63.6}
{"compound": "CCN(CC)c1ccc(N=Cc2ccccc2[N+](=O)[O-])cc1", "quantity unit": "%", "inhibition": 64.4}
{"compound": "CC1(C)CC(=O)C2=C(C1)OC(N)=C(C#N)C21CCN(C(=O)OCc2ccccc2)CC1", "quantity unit": "%", "inhibition": 4.4}
{"compound": "COc1cc([N+](=O)[O-])ccc1NC(=O)CCCOc1cccc(C)c1C", "quantity unit": "%", "inhibition": 9.2}
{"compound": "NC(=O)C1=C[C@@H](c2ccc(Br)cc2)C[C@@H](OCCCCO)O1", "quantity unit": "%", "inhibition": 66.1}
{"compound": "CC(C)N(C(=O)CSc1nnc(CNc2ccc(F)cc2)o1)C(C)C", "quantity unit": "%", "inhibition": 17}
{"compound": "Cc1cccc(C)c1NC(=O)C1=C(O)c2sccc2N(C)S1(=O)=O", "quantity unit": "%", "inhibition": 2.2}
{"compound": "Nc1ccc(C2=Nc3cccc4cccc(c34)N2)cc1", "quantity unit": "%", "inhibition": 23.6}

* * *

target entity: Mannose-6-phosphate isomerase (Homo sapiens) (UniProt P34949)
assay info: MPI inhibition at elevated mannose 6-phosphate – biochemical, fluorescence intensity, high mannose 6-phosphate, primary screen (AID 1220)
recorded conditions: recombinant PMI enzyme, coupled fluorescence intensity; at 20 µM
About 1,300 (0.68%) of roughly 190,000 compounds were called active. Rule as the data show it: active = inhibition above about 50%; inactive = the rest. Shown is part of a subset that was picked to be rich in actives.
Outcome codes: t = active, f = inactive

{"molecule": "O=C(CCN1C(=O)C2C3C=CC(C3)C2C1=O)Nc1ccccc1 (configuration not stated)", "assigned category": "f"}
{"molecule": "O=C(Nc1cccc2nsnc12)c1ccc(-c2ccc(Br)cc2)o1", "assigned category": "t"}
{"molecule": "Cc1nn(-c2ccccc2)c(Cl)c1C1C(C#N)=C(N)Oc2c1c(C)nn2-c1ccccc1 (configuration not stated)", "assigned category": "f"}
{"molecule": "O=C(Nc1cccc2ncccc12)c1ccc(-c2ccc(Br)cc2)o1", "assigned category": "f"}
{"molecule": "COc1ccc(C2C(C#N)=C(N)OC3=C2C(=O)CCC3)cc1OC (configuration not stated)", "assigned category": "f"}
{"molecule": "COc1cc(C2C3=C(CCCC3=O)Nc3ccc4ncccc4c32)ccc1O (configuration not stated)", "assigned category": "f"}
{"molecule": "O=C(O)CCSc1nnc(COc2ccc([N+](=O)[O-])cc2)n1-c1ccccc1", "assigned category": "f"}
{"molecule": "CCOc1ccc(Br)cc1/C=N/O", "assigned category": "f"}
{"molecule": "CCN(CC)P(=O)(Nc1ccc(C)cc1Br)c1ccc(N(C)C)cc1NC(=O)c1ccco1 (configuration not stated)", "assigned category": "t"}
{"molecule": "CC1(C)Oc2ccc3ccc(=O)oc3c2/C(=C/Nc2ccc(O)cc2)C1=O", "assigned category": "f"}
{"molecule": "O=C(Nc1cccc2nsnc12)c1ccc(-c2cccc(Cl)c2)o1", "assigned category": "t"}
{"molecule": "CC(=O)N1CC(c2ccccc2)C(c2ccc(Cl)cc2)=N1 (configuration not stated)", "assigned category": "f"}
